# test: Tanguay_ZF_120hpf_AXIS_legacy: (Legacy) Oregon State University Tanguay Lab 120 Hour Post-fertilization zebrafish Assay for Body Axis Malformation (AID 2283635)
Inconclusive results are not listed. The source made the active and inactive calls. Rule for the calls: active = hit-call score of the fitted dose curve at least 0.9, where 1 is the maximum; inconclusive = response in the unintended direction; inactive = score below 0.9.
Choose one outcome from this list and give only that: active, inactive

Completed entries (count: 3):
CCCCOC(=O)[C@@H](C)Oc1ccc(Oc2ccc(C(F)(F)F)cn2)cc1 ... inactive
O=C(O)c1ccccc1 ... inactive
S=C(S)NCCNC(=S)S.[Mn+2].[S-]C([S-])=NCCN=C([S-])[S-].[Zn+2] ... inactive

Ask | Query: recorded result category for `N[C@@H](Cc1cc(I)c(Oc2ccc(O)c(I)c2)c(I)c1)C(=O)O` in this test
Reply | active

Ask | I'd appreciate the recorded outcome for `CCOC(=O)NCCOc1ccc(Oc2ccccc2)cc1` from this test.
Reply | inactive

Ask | Called result for C[C@]12CC[C@@H]3c4ccc(O)cc4C[C@@H](CCCCCCCCCS(=O)CCCC(F)(F)C(F)(F)F)[C@H]3[C@@H]1CC[C@@H]2O (stereo partly specified)
Reply | inactive

Ask | Per the records of this test, what outcome belongs to `CCOC(=O)COc1cc(-n2ncc(C(F)(F)F)c(C)c2=O)c(F)cc1Cl` ?
Reply | inactive

Ask | // outcome(item) with item = `CCCOC(=O)c1ccc(C(=O)OCCC)nc1`
Reply | active

Ask | What call does the record list for `COCCO` ?
Reply | inactive

Ask | For this compound, state the assay outcome: `CC(=O)S[C@@H]1CC2=CC(=O)CC[C@]2(C)[C@H]2CC[C@@]3(C)[C@@H](CC[C@@]34CCC(=O)O4)[C@H]12`
Reply | inactive

Ask | Hi team, can someone confirm the assay call for `OB(O)O` ?
Reply | inactive
